# experimentalTarget: T1, integrin αvβ3 (Homo sapiens, UniProt P06756)
# T1 chain 1: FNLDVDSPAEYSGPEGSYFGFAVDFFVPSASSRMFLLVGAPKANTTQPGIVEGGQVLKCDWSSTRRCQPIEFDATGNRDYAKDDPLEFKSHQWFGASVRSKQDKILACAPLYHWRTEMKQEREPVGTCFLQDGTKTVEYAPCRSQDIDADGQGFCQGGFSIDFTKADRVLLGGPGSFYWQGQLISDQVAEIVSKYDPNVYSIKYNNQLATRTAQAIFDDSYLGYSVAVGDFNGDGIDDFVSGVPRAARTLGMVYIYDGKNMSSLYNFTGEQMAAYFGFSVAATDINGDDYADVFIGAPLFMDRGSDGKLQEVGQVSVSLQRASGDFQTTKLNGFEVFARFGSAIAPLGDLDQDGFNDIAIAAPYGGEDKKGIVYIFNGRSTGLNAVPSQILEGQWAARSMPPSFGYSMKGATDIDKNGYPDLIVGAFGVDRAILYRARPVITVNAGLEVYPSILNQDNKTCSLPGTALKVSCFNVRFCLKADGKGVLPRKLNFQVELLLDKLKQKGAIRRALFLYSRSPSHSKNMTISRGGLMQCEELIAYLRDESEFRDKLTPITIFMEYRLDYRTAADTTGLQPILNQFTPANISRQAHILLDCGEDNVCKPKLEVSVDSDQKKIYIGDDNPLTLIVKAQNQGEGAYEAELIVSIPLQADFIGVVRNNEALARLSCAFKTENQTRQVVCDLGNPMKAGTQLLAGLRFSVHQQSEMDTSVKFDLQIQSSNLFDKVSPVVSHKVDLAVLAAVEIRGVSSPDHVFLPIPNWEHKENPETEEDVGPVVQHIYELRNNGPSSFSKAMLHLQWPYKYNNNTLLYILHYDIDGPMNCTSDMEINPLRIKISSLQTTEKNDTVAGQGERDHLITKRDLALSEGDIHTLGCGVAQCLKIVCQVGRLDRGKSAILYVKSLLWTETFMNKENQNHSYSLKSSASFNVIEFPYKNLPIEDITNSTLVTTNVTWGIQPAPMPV
# T1 chain 2: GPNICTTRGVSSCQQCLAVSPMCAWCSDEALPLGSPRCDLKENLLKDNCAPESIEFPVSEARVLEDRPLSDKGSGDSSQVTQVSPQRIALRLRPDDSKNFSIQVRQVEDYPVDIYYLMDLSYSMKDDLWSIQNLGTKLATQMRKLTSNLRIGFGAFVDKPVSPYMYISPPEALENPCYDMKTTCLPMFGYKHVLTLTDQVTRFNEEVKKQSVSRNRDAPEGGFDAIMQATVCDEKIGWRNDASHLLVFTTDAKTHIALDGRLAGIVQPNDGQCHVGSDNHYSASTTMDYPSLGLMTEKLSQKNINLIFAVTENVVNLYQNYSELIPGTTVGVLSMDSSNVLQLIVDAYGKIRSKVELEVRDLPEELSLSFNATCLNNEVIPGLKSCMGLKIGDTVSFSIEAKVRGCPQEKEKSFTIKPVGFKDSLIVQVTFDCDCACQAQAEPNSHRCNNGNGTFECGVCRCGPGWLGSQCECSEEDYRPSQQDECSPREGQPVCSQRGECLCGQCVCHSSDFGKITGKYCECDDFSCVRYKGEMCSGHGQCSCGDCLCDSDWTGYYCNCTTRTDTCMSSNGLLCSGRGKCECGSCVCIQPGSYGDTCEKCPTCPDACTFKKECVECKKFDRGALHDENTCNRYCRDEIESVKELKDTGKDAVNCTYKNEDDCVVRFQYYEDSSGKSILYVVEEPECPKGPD
# method: fluorescence competition binding assay with ALOS4-FITC
Bridges are numbered along the chain shown (N, C = ends). Where no end group is shown, it is not given here.

[
  {
    "binder": "CSSAGSLFC (disulfide 1-9 (inferred)) [ALOS4]",
    "Kd": "2550 nM"
  }
]
